Target: SHP2-C SH2;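 also: peptide library displayed on the E. coli surface as eCPX fusions, selected cells deep-sequenced, score is each peptide's frequency after selection divided by its frequency in the input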
Experiment: SH2 binding enrichment of the phosphorylated peptide, bacterial display (enrichment ratio); higher = better substrate or ligand; peptides without Tyr show the background
Short version: SH2 binding enrichment at least 0.9 is 1 (yes), less is 0 (no).

| item sequence | class label |
| --- | --- |
| WFPANYVKLLS [ITSN1_Y1132] | 1 (yes) |
| VDSNPYSRLVA [UBA5_Y53_M57V] | 1 (yes) |

# input for lookup
In plain terms: is recorded SH2 binding enrichment at least 0.9 for NAGDFYDLFGG [PTPN11_Y63_T59A_YF] ?
0 (no)

----------
System: c-Abl (mouse);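 also: 11-residue human phosphosite peptides and single-mutation variants displayed on the E. coli surface, counted by deep sequencing, each peptide's frequency after selection divided by its frequency in the unselected input library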;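 also: frequency after pTyr selection over input frequency; kinase dosed for 20-30% of maximal phosphorylation in three min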
Experiment: phosphorylation enrichment, bacterial display (enrichment ratio); higher = better substrate or ligand; peptides without Tyr show the background
observed property: phosphorylation enrichment
Please respond with just the number, no unit label.

// solved cases for phosphorylation enrichment follow
| item sequence | target | val |
| --- | --- | --- |
| YSIDHYLGKEM [G6PD_Y202_R198S] | c-Abl (mouse) | 0.555 |
| ETALHYIHDGI [GATD3A_Y250] | c-Abl (mouse) | 0.659 |
| EFLKNYFTDKA [DSG2_Y775_R773K] | c-Abl (mouse) | 0.573 |
| FFCRWYRNRKS [EREG_Y144_YF] | c-Abl (mouse) | 0.421 |
| ANAYIYDVQLP [L1CAM_Y420_V421D] | c-Abl (mouse) | 0.954 |
| RSAGKYDVYLI [MECP2_Y120] | c-Abl (mouse) | 0.587 |
| HLPAGYIIPLQ [GAA_Y822_R819P] | c-Abl (mouse) | 0.363 |
| YPSLPYSPVSS [CAMKK2_Y128_C123Y] | c-Abl (mouse) | 0.564 |

# input sequence: CLAKMYFSAVE [CP_Y539_D544E_YF] ; wanted: its phosphorylation enrichment
0.848

Reported phosphorylation enrichment for SVTCTYTPALN [TP53_Y126_S127T] : what is it?
0.88
